- Procedure Text: Baseline F18-PSMA-PET/CT: normal tissue evaluation at screening
- Type: in vivo, human
- Condition Description: individual participants, listed as PSMA-PET CT tracer
- Protocol: Participants underwent a standard of care diagnostic ^18F-PSMA-PET/CT at baseline (i,e, within six weeks prior to administration of ^212Pb-Compound 1). PSMA-PET/CT was conducted using the radiotracer ^18F-PSMA-1007: dose 2.5 MBq/kg (minimum 200 MBq, maximum 300 MBq) with PET acquisition performed approximately 120 minutes post-injection. […]

Compound: O=C(O)CC[C@H](NC(=O)N[C@@H](CCCCNC(=O)[C@H](Cc1ccc2ccccc2c1)NC(=O)c1ccc(CNC(=O)[C@H](CCC(=O)O)NC(=O)[C@H](CCC(=O)O)NC(=O)c2ccc([18F])nc2)cc1)C(=O)O)C(=O)O [Compound F18-PSMA-PET]
SUV max, Liver: 14.5 to 25.5
